Hey, just so you know, these numbers are from PubChem BioAssay AID256.

tested on: CD2F1 mice, L1210 leukemia ip, survival T/C; experiment: NCI In Vivo Anticancer Drug Screen. Data for tumor model L1210 Leukemia (intraperitoneal) in CD2F1 (CDF1) mice; conditions: endpoint: mean survival time; dose: 400.0 mg/kg/injection; schedule: Q04DX003 (ip); vehicle: saline with Tween-80; higher = longer survival
Inconclusive results and toxic doses are left out.
MEASUREMENT KIND: T/C

1. O=C(NC(=S)Nc1cc(Cl)ccc1O)c1cccc(Br)c1; 95 % of control
2. O=C(NC(=S)Nc1ccc(CCO)cc1)c1cccc(Br)c1; 93 % of control
3. O=c1[nH]cc(F)c(=O)[nH]1; 117 % of control
4. Cc1nc2ccc(Cl)cc2c(=O)o1; 93 % of control
5. OC(c1ccccc1)C1(c2ccccc2)OCCO1 (configuration not stated); 98 % of control
6. CS/C([S-])=N/N=C\c1ccccn1.CS/C([S-])=N/N=C\c1ccccn1.[Fe+2]; 91 % of control
7. CC/C=C(\CC(=O)OCC)C(=O)OCC; 101 % of control

* * *

The reader will find reported T/C values listed item by item below.
tested on: CD2F1 mice, L1210 leukemia ip, survival T/C; test: NCI In Vivo Anticancer Drug Screen. Data for tumor model L1210 Leukemia (intraperitoneal) in CD2F1 (CDF1) mice; settings: endpoint: mean survival time; dose: 200.0 mg/kg/injection; schedule: Q01DX009 (ip); vehicle: saline sonified; higher = longer survival
Inconclusive results and toxic doses are left out.
MEASUREMENT KIND: T/C

1. O=C1NC(=O)C2C3C=CC(C3)C12 (centres undefined); 96 % of control
2. COCCOCCOCCOCCOCCOCCOCCOC(=O)Nc1ccc(C)c(NC(=O)OCCOCCOCCOCCOCCOCCOCCOC)c1; 96 % of control
3. COc1ccc2c(c1)c(C(=O)O)cc(=O)n2C; 95 % of control
4. CS(=O)(=O)OCC(O)C(O)COS(C)(=O)=O (centres undefined); 96 % of control

* * *

test system: CD2F1 mice, L1210 leukemia ip, survival T/C; experiment: NCI In Vivo Anticancer Drug Screen. Data for tumor model L1210 Leukemia (intraperitoneal) in CD2F1 (CDF1) mice; conditions: endpoint: mean survival time; dose: 100.0 mg/kg/injection; schedule: Q04DX003 (ip); vehicle: saline with Tween-80; higher = longer survival
Inconclusive results and toxic doses are left out.
MEASUREMENT KIND: T/C

1. CCCCC(O)CCCCCCCCCC(=O)O (stereo not drawn); 97 % of control
2. Cc1ccc([N+](=O)[O-])cc1NC(=O)SCCOC(=O)COc1ccc(Cl)cc1; 98 % of control
3. CC(=O)OC1CCC2(C)C(=CCC3C2CCC2(C)C(C(C)CCCC(C)(C)O)CCC32)C1 (stereo not drawn); 97 % of control
4. Cc1c(Br)c(=O)[nH]c2ccccc12; 101 % of control
5. O=[N+]([O-])c1ccc2nc3ccccc3cc2c1; 92 % of control
6. O=C1NC(=O)C2C3C=CC(C3)C12 (stereo not drawn); 94 % of control
7. CC(C)(CCl)c1ccc(C(C)(C)CCl)cc1; 100 % of control
8. C[N+]1(C)CCC(OC(=O)C(O)(c2ccccc2)C2CCCC2)C1 (stereo not drawn); 108 % of control
9. OC1CCCC2CCCCC12 (stereo not drawn); 100 % of control
10. COc1ccc(C(O)(c2ccccc2)C(O)c2ccccc2)cc1 (stereo not drawn); 93 % of control
11. CCCCS(=O)C(Cl)(CCC)C(C)(C)O (stereo not drawn); 97 % of control
12. CCOC(=O)C(CCC(=O)O)NC(=O)OCc1ccccc1 (stereo not drawn); 97 % of control
13. COc1ccc2occc2c1; 94 % of control
14. NC(=S)NC(=O)c1ccccc1; 94 % of control
15. CC(C)(C)c1ccc(OCCO)cc1; 100 % of control
16. O=C(O)c1cc2ccccc2o1; 95 % of control
17. COc1ccc2c(Nc3ccc(NS(C)(=O)=O)cc3)c3ccccc3nc2c1; 120 % of control
18. COc1cc(C=O)ccc1OCc1ccccc1; 106 % of control
19. COc1ccccc1OCC(C)=O; 108 % of control
20. Cc1nc(-c2ccccc2)[nH]c(=O)c1CCO; 100 % of control
21. COc1ccc(Cl)c2c1C(=O)C(=O)N2; 91 % of control
22. Cc1c(C)c2ccccc2[nH]c1=O; 99 % of control
23. O=C(c1ccc(F)cc1)c1ccccc1Cl; 105 % of control
24. CCOC(CNc1ccc([N+](=O)[O-])cc1)OCC; 94 % of control
25. Cc1cc(=O)[nH]c2c(C)cc(Cl)cc12; 106 % of control
26. Nc1ccc2c(c1)-c1ccccc1C2O (stereo not drawn); 92 % of control
27. CCCc1cc(OC)ccc1O; 96 % of control
28. O=[N+]([O-])c1ccc2nc(Cl)sc2c1; 86 % of control
